run_conditions: in ethanol, 313.2 K
parameter_measured: solubility (mole fraction)
Respond numerically, and do not add a unit to the figure.

Solved entries (count: 2):
C1=Cc2nc1c(-c1ccccc1)c1ccc([nH]1)c(-c1ccccc1)c1nc(c(-c3ccccc3)c3ccc([nH]3)c2-c2ccccc2)C=C1 :: 2.31e-06
Clc1ccc(-c2c3nc(c(-c4ccc(Cl)cc4)c4ccc([nH]4)c(-c4ccc(Cl)cc4)c4nc(c(-c5ccc(Cl)cc5)c5ccc2[nH]5)C=C4)C=C3)cc1 :: 1.93e-06

Challenge: Form field: reported solubility (mole fraction) of CC(=O)N1CCN(c2ccc(OC[C@@H]3CO[C@@](Cn4ccnc4)(c4ccc(Cl)cc4Cl)O3)cc2)CC1 (racemic)
Response given: 0.00649

Challenge: // solubility (mole fraction) lookup, key: C[C@@H]1CC[C@H]2[C@@H](C)C(=O)O[C@@H]3O[C@@]4(C)CC[C@@H]1[C@]32OO4
Response given: 0.00457

###

run_conditions: in NMP, 303.2 K
parameter_measured: solubility (mole fraction)
The reply should be a number, written without any unit.

Challenge: Name the reported solubility (mole fraction) value associated with the molecule CC(=O)N1CCN(c2ccc(OC[C@@H]3CO[C@@](Cn4ccnc4)(c4ccc(Cl)cc4Cl)O3)cc2)CC1 (racemic)
Response given: 0.0282

###

Measured solubility (mole fraction) by item
run_conditions: in ethanol, 283.15 K
Just the number, please.

Clc1ccc(OCCCBr)cc1 :: 0.0366

Here is another molecule to look at.
Challenge: // solubility (mole fraction) lookup, key: CC1(C)S[C@@H]2[C@H](NC(=O)COc3ccccc3)C(=O)N2[C@H]1C(=O)[O-].[K+]
Response given: 0.000485

###

run_conditions: in water, 293.67 K
parameter_measured: solubility (mole fraction)

Challenge: Consider the molecule shown here: O=C(O)CNCP(=O)(O)O What is its recorded solubility (mole fraction)?
Response given: 0.00112

###

The compounds listed here are annotated with their solubility (mole fraction).
run_conditions: in propylene glycol, 298.2 K
Reply with just the number.

Below are worked cases with known answers.
Cc1c(O)c(=O)ccn1C :: 0.00563
CC(=O)N1CCN(c2ccc(OC[C@@H]3CO[C@@](Cn4ccnc4)(c4ccc(Cl)cc4Cl)O3)cc2)CC1 (racemic) :: 0.00219

Challenge: Which measured solubility (mole fraction) value corresponds to Cc1ccc(-c2ncc(Cl)cc2-c2ccc(S(C)(=O)=O)cc2)cn1 ?
Response given: 0.0605

Challenge: Can you look up the measured solubility (mole fraction) of O=C(O)c1ccc(-n2nc(-c3ccccc3O)nc2-c2ccccc2O)cc1 for me?
Response given: 0.0195

###

run_conditions: in isopropanol, 303.2 K
parameter_measured: solubility (mole fraction)
Lab note: record just the number, no unit beside it.

Challenge: // returns reported solubility (mole fraction) for input CC(=O)N1CCN(c2ccc(OC[C@@H]3CO[C@@](Cn4ccnc4)(c4ccc(Cl)cc4Cl)O3)cc2)CC1 (racemic)
Response given: 0.00121

###

run_conditions: in ethanol, 278.2 K
parameter_measured: solubility (mole fraction)
Just the number, please, no unit after it.

Challenge: Name the reported solubility (mole fraction) value associated with the compound C[C@@H]1CC[C@H]2[C@@H](C)C(=O)O[C@@H]3O[C@@]4(C)CC[C@@H]1[C@]32OO4
Response given: 0.000998

###

run_conditions: in PEG-400, 338.15 K
parameter_measured: solubility (mole fraction)
Reply: number alone, nothing else.

Challenge: May I ask what solubility (mole fraction) has been recorded for O=C1Nc2ccccc2C1=O ?
Response given: 0.145

###

run_conditions: in water, 303 K
parameter_measured: solubility (mole fraction)
Answer with a number only.

Challenge: solubility (mole fraction) lookup needed for C1CN2CN3CCN(CN1C3)C2 , thanks.
Response given: 0.119

###

run_conditions: in water, 288.25 K
parameter_measured: solubility (mole fraction)
Lab note: jot the number down without any unit.

Challenge: Which value of solubility (mole fraction) has been reported for F[P-](F)(F)(F)(F)F.F[P-](F)(F)(F)(F)F.c1cc[n+](CCCCCC[n+]2ccccc2)cc1 in the records?
Response given: 2.7e-05

###

run_conditions: in DMSO, 313.15 K
parameter_measured: solubility (mole fraction)
// print number alone

Challenge: Looking for the measured solubility (mole fraction) of COc1cc(/C=C/C(=O)O)cc(OC)c1O , can you help?
Response given: 0.155

###

run_conditions: in n-propyl acetate, 303.2 K
parameter_measured: solubility (mole fraction)
Form field (numeric): enter value without unit.

Challenge: Record request: solubility (mole fraction) value, item O=C(O)c1cccc(C(=O)O)c1
Response given: 0.000791

###

run_conditions: in water, 303.55 K
parameter_measured: solubility (mole fraction)
Give only the figure.

Challenge: # get_value(readout='solubility (mole fraction)', item= F[P-](F)(F)(F)(F)F.F[P-](F)(F)(F)(F)F.c1cc[n+](CCCCCC[n+]2ccccc2)cc1 )
Response given: 7e-05

###

run_conditions: in water, 293.65 K
parameter_measured: solubility (mole fraction)

Challenge: Fill blank: measured solubility (mole fraction) of the molecule Nc1ccc(Cl)nn1 is ____.
Response given: 6.28e-05

###

run_conditions: in n-octane, 298.15 K
Items are presented alongside their recorded solubility (mole fraction).
Lab note: write the figure by itself, no unit.

Challenge: Quick check: solubility (mole fraction) of O=C(C(=O)c1ccccc1)c1ccccc1 ?
Response given: 0.00724

Challenge: For c1ccc2cc3ccccc3cc2c1 , what is its reported solubility (mole fraction)?
Response given: 0.00184

###

run_conditions: in ethanol, 318.6 K
parameter_measured: solubility (mole fraction)
Write the value as a bare number.

Challenge: Using the record for c1ccc(P(c2ccccc2)c2ccccc2)cc1 , report its solubility (mole fraction).
Response given: 0.0225

###

run_conditions: in dichloromethane, 293.15 K
parameter_measured: solubility (mole fraction)

Challenge: Would you mind telling me what solubility (mole fraction) value was observed for O=P(Oc1ccccc1)(Oc1ccccc1)N1CCN(P(=O)(Oc2ccccc2)Oc2ccccc2)CC1 ?
Response given: 0.00731

###

run_conditions: in methanol, 313.15 K
Some compounds, each annotated with its measured solubility (mole fraction).
Write the number on its own, no unit after it.

Cc1cnc(NC(=O)C2=C(O)c3ccccc3S(=O)(=O)N2C)s1 :: 8.46e-05
CO[C@H]1O[C@H](CO)[C@@H](O)[C@H](O)[C@H]1O :: 0.0175
CN1COCN(Cc2cnc(Cl)s2)C1=N[N+](=O)[O-] :: 0.00397
O=c1c(-c2ccc(O)cc2)coc2c([C@@H]3O[C@H](CO)[C@@H](O)[C@H](O)[C@H]3O)c(O)ccc12 :: 0.00858
NCCC(=O)O :: 0.164

Challenge: Suppose we examine the compound CCc1ccc(CCOc2ccc(CC3SC(=O)NC3=O)cc2)nc1.Cl (stereo unspecified) ; what solubility (mole fraction) value has been reported?
Response given: 0.0149

###

run_conditions: in n-propanol, 308.15 K
parameter_measured: solubility (mole fraction)
// no unit, no text: just the number

Reference set (2 entries):
C/C=C/C=C/C(=O)O :: 0.0851
Nc1ccc(S(=O)(=O)Nc2ncccn2)cc1 :: 7.21e-05

Now take the following compound into account.
Challenge: Which solubility (mole fraction) is listed for COc1ccc([C@@H]2CC(=O)c3c(O)cc(O[C@@H]4O[C@H](CO[C@@H]5O[C@@H](C)[C@H](O)[C@@H](O)[C@H]5O)[C@@H](O)[C@H](O)[C@H]4O)cc3O2)cc1O ?
Response given: 0.000218

###

run_conditions: in PEG-400, 318.15 K
Recorded solubility (mole fraction) for the following compounds
Could you respond with only the numeric value?

Nc1ccc(S(=O)(=O)Nc2ncccn2)cc1 :: 0.0139

Shift focus to the following entry.
Challenge: Which measured solubility (mole fraction) value corresponds to O=C1Nc2ccccc2C1=O ?
Response given: 0.121

###

run_conditions: in water, 308.25 K
parameter_measured: solubility (mole fraction)

CS(=O)(=O)c1ccc([C@@H](O)[C@@H](CF)NC(=O)C(Cl)Cl)cc1 :: 9.71e-05

Next compound, solubility (mole fraction) to be filled in.
Challenge: Can you look up the measured solubility (mole fraction) of F[P-](F)(F)(F)(F)F.F[P-](F)(F)(F)(F)F.c1cc[n+](CCCCCC[n+]2ccccc2)cc1 for me?
Response given: 9e-05

###

run_conditions: in 2-butoxyethanol, 298.15 K
parameter_measured: solubility (mole fraction)
Reply with just the number.

Challenge: Could you share which solubility (mole fraction) value was measured for c1ccc2cc3ccccc3cc2c1 ?
Response given: 0.00379

###

run_conditions: in cyclohexane, 325.2 K
parameter_measured: solubility (mole fraction)
Give the figure only, with no unit attached.

Challenge: solubility (mole fraction) for Cc1ccccc1C(=O)O ?
Response given: 0.0885

###

run_conditions: in DMAc, 298.15 K
parameter_measured: solubility (mole fraction)
Reply: number alone, nothing else.

Challenge: Fill blank: measured solubility (mole fraction) of the compound CCC1=C(C)CN(C(=O)NCCc2ccc(S(=O)(=O)NC(=O)NC3CCC(C)CC3)cc2)C1=O (stereo unspecified) is ____.
Response given: 0.0199
